- Tested on: human skin
- assaySummary: Test for application to human skin (patch test, CTFA Guideline)
- Type: in vivo
- conditionNotes: 24 hours later; ++ = Intense erythema with edema; 1% in patch base, n = 30
What The number of volunteers having reaction, mark ++ was measured for each of the following?
Answers are plain numbers.

COc1cc(CC(=O)Oc2cc(C)ccc2C(C)C)cc(OC)c1OC ... 0

Can you give me The number of volunteers having reaction, mark ++ for all of these, one by one?
1. COc1cc(/C=C/C(=O)Oc2cc(C)ccc2C(C)C)cc(OC)c1OC
2. COc1cc(CCC(=O)Oc2cc(C(C)C)ccc2C)cc(OC)c1OC
3. COc1cc(/C=C/C(=O)Oc2cc(C(C)C)ccc2C)cc(OC)c1OC

Reply:
1. 0
2. 0
3. 0
